Assay: Stability testing of 5 crystalline forms over 8 weeks at harsh conditions (40° C., 75% relative humidity)
Format: physicochemical
Settings: 40° C./75% RH, 4 weeks
metric-name: XRPD Patterns

1) O=S1(=O)CCN(Cc2cc(NC3CCOCC3)c3[nH]c(-c4ccccc4)cc3c2)CC1 [Crystalline Form V]
Pattern A
2) O=S1(=O)CCN(Cc2cc(NC3CCOCC3)c3[nH]c(-c4ccccc4)cc3c2)CC1 [Crystalline Form IV]
Pattern A
3) O=S1(=O)CCN(Cc2cc(NC3CCOCC3)c3[nH]c(-c4ccccc4)cc3c2)CC1 [Crystalline Form XI]
Pattern A
4) O=S1(=O)CCN(Cc2cc(NC3CCOCC3)c3[nH]c(-c4ccccc4)cc3c2)CC1 [Crystalline Form VIII]
Pattern A

---

Assay: Stability testing of 5 crystalline forms over 8 weeks at harsh conditions (40° C., 75% relative humidity)
Format: physicochemical
Settings: 40° C./75% RH, 2 weeks
metric-name: Purity (%)
// units = %; emit number, no label

Notebook: O=S1(=O)CCN(Cc2cc(NC3CCOCC3)c3[nH]c(-c4ccccc4)cc3c2)CC1 [Crystalline Form V] , Purity read as 99.21

Form field Purity, entry O=S1(=O)CCN(Cc2cc(NC3CCOCC3)c3[nH]c(-c4ccccc4)cc3c2)CC1 [Crystalline Form XI] : 99.36

For O=S1(=O)CCN(Cc2cc(NC3CCOCC3)c3[nH]c(-c4ccccc4)cc3c2)CC1 [Crystalline Form VIII] the molecule record lists Purity as 99.91

response.value for O=S1(=O)CCN(Cc2cc(NC3CCOCC3)c3[nH]c(-c4ccccc4)cc3c2)CC1 [Crystalline Form IV] (field: Purity) = 99.88

---

Answer each item with its documented Purity.
Experiment: Stability testing of 5 crystalline forms over 8 weeks at harsh conditions (40° C., 75% relative humidity)
Format: physicochemical
Conditions: 40° C./75% RH, 4 weeks
Could you kindly put the unit after your number?

The measured Purity associated with O=S1(=O)CCN(Cc2cc(NC3CCOCC3)c3[nH]c(-c4ccccc4)cc3c2)CC1 [Crystalline Form XI] reads 99.56%

# compound O=S1(=O)CCN(Cc2cc(NC3CCOCC3)c3[nH]c(-c4ccccc4)cc3c2)CC1 [Crystalline Form V] ; its Purity = 99.16%

# Purity of O=S1(=O)CCN(Cc2cc(NC3CCOCC3)c3[nH]c(-c4ccccc4)cc3c2)CC1 [Crystalline Form VIII] = 99.83%

The value of Purity measured for the compound O=S1(=O)CCN(Cc2cc(NC3CCOCC3)c3[nH]c(-c4ccccc4)cc3c2)CC1 [Crystalline Form IV] turned out to be 99.87%
